Source listed as ChEMBL document CHEMBL2151002.

Here, each record is paired with measured pEC50 data.
target: D(3) dopamine receptor (Homo sapiens, UniProt P35462); assay: Agonist activity at human cloned dopamine D3 receptor expressed in CHO cells by [35S]GTPgammaS binding assay
Sequence (P35462 whole entry): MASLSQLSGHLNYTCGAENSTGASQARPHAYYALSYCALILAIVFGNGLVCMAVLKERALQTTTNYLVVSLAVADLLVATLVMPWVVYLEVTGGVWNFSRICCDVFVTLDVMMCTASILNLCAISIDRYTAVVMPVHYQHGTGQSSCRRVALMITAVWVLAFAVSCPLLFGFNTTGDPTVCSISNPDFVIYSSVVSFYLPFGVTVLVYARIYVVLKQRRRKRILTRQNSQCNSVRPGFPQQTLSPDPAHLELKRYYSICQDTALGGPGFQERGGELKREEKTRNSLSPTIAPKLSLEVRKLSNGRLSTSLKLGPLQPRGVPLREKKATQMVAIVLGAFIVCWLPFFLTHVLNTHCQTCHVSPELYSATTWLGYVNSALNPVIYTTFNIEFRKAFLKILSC
pEC50: −log10 of the molar value.
readout_name: pEC50

>  <mol>
CCCN(CCN1CCN(C(=O)c2c[nH]c3ccccc23)CC1)[C@H]1CCc2nc(N)sc2C1

>  <readout_name>
pEC50

>  <quantitative_readout>
9.06

$$$$
>  <mol>
CCCN(CCN1CCN(c2ccc(-c3ccccc3)cc2)CC1)[C@H]1CCc2nc(N)sc2C1

>  <readout_name>
pEC50

>  <quantitative_readout>
8.82

$$$$
>  <mol>
CCCN(CCN1CCN(c2nccc3ccccc23)CC1)[C@H]1CCc2nc(N)sc2C1

>  <readout_name>
pEC50

>  <quantitative_readout>
9.09

$$$$
>  <mol>
CCCN(CCN1CCN(C(=O)c2cc3ccccc3[nH]2)CC1)[C@H]1CCc2nc(N)sc2C1

>  <readout_name>
pEC50

>  <quantitative_readout>
9.59

$$$$
>  <mol>
CCCN(CCN1CCN(c2ccc3[nH]ccc3c2)CC1)[C@H]1CCc2nc(N)sc2C1

>  <readout_name>
pEC50

>  <quantitative_readout>
8.90

$$$$
>  <mol>
CCCN(CCN1CCN(C(=O)c2ccc3[nH]ccc3c2)CC1)[C@H]1CCc2nc(N)sc2C1

>  <readout_name>
pEC50

>  <quantitative_readout>
9.25

$$$$

* * *

target: D(2) dopamine receptor (Rattus norvegicus)
Sequence (P61169 whole entry): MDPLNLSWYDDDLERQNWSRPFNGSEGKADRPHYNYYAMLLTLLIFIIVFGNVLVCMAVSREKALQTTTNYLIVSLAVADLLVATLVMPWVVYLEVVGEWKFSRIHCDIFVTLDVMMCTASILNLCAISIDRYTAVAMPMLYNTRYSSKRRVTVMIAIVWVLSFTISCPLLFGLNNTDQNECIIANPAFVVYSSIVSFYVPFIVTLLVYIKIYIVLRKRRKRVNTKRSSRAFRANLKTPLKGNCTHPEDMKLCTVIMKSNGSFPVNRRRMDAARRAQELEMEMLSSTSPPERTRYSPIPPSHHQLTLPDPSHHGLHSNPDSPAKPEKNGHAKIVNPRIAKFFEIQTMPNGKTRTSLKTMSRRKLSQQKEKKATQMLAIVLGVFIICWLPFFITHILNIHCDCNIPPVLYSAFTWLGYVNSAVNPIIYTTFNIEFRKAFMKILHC
pKi: −log10 of the molar value.
Classes are defined on pKi with ranges b0 = under 6, b1 = from 6 up to 7, b2 = 7 and over

>  <molecule>
CCCN(CCN1CCN(C(=O)c2ccc3[nH]ccc3c2)CC1)[C@@H]1CCc2nc(N)sc2C1

>  <group>
b0

$$$$
>  <molecule>
CCCN(CCN1CCN(c2ccc3[nH]ccc3c2)CC1)[C@H]1CCc2nc(N)sc2C1

>  <group>
b2

$$$$
>  <molecule>
CCCN(CCN1CCN(Cc2ccc3[nH]ccc3c2)CC1)C1CCc2c(O)cccc2C1 (centres undefined)

>  <group>
b1

$$$$
>  <molecule>
CCCN(CCN1CCN(Cc2cc3ccccc3[nH]2)CC1)C1CCc2c(O)cccc2C1 (centres undefined)

>  <group>
b1

$$$$

* * *

Here, each record is paired with measured Ratio Ki data.
organism: Rattus norvegicus; assay: Selectivity ratio of Ki for rat cloned dopamine D2L receptor to Ki for rat cloned dopamine D3 receptor

>  <molecule>
CCCN(CCN1CCN(C(=O)c2ccc3[nH]ccc3c2)CC1)C1CCc2nc(N)sc2C1 (racemic)

>  <Ratio Ki>
303

$$$$
>  <molecule>
CCCN(CCN1CCN(C(=O)c2c[nH]c3ccccc23)CC1)C1CCc2nc(N)sc2C1 (racemic)

>  <Ratio Ki>
360

$$$$
>  <molecule>
CCCN(CCCN1CCN(C(=O)c2cc3ccccc3[nH]2)CC1)C1CCc2nc(N)sc2C1 (racemic)

>  <Ratio Ki>
334

$$$$
>  <molecule>
CCCN(CCN1CCN(C(=O)c2c[nH]c3ccc(O)cc23)CC1)C1CCc2nc(N)sc2C1 (centres undefined)

>  <Ratio Ki>
64.2

$$$$
>  <molecule>
CCCN(CCN1CCN(Cc2c[nH]c3ccccc23)CC1)C1CCc2c(O)cccc2C1 (centres undefined)

>  <Ratio Ki>
25.6

$$$$
>  <molecule>
CCCN(CCN1CCN(Cc2ccc3[nH]ccc3c2)CC1)C1CCc2c(O)cccc2C1 (centres undefined)

>  <Ratio Ki>
64.5

$$$$
>  <molecule>
CCCN(CCN1CCN(c2nccc3ccccc23)CC1)[C@H]1CCc2nc(N)sc2C1

>  <Ratio Ki>
121

$$$$
>  <molecule>
CCCN(CCN1CCN(C(=O)c2c[nH]c3ccccc23)CC1)[C@H]1CCc2nc(N)sc2C1

>  <Ratio Ki>
828

$$$$
>  <molecule>
CCCN(CCN1CCN(c2ccc3[nH]ccc3c2)CC1)[C@@H]1CCc2nc(N)sc2C1

>  <Ratio Ki>
8.46

$$$$

* * *

species on record: Rattus norvegicus; experiment: Selectivity ratio of Ki for rat cloned dopamine D2L receptor to Ki for rat cloned dopamine D3 receptor
readout_name: Ratio Ki

>  <compound>
CCCN(CCN1CCN(C(=O)c2ccc3[nH]ccc3c2)CC1)[C@@H]1CCc2nc(N)sc2C1

>  <readout_name>
Ratio Ki

>  <quantitative_readout>
49.7

$$$$
>  <compound>
CCCN(CCN1CCN(c2ccc3[nH]ccc3c2)CC1)C1CCc2nc(N)sc2C1 (racemic)

>  <readout_name>
Ratio Ki

>  <quantitative_readout>
24.3

$$$$
>  <compound>
CCCN(CCN1CCN(c2ccc3[nH]ccc3c2)CC1)[C@H]1CCc2nc(N)sc2C1

>  <readout_name>
Ratio Ki

>  <quantitative_readout>
17.8

$$$$
>  <compound>
CCCN(CCN1CCN(c2ccc3[nH]ccc3c2)CC1)C1CCc2c(O)cccc2C1 (stereo not drawn)

>  <readout_name>
Ratio Ki

>  <quantitative_readout>
7.3

$$$$
>  <compound>
CCCN(CCN1CCN(Cc2ccc3[nH]ccc3c2)CC1)C1CCc2nc(N)sc2C1 (stereo not drawn)

>  <readout_name>
Ratio Ki

>  <quantitative_readout>
16.4

$$$$
>  <compound>
CCCN(CCN1CCN(C(=O)c2ccc3[nH]ccc3c2)CC1)[C@H]1CCc2nc(N)sc2C1

>  <readout_name>
Ratio Ki

>  <quantitative_readout>
736

$$$$
>  <compound>
CCCN(CCN1CCN(Cc2cc3ccccc3[nH]2)CC1)C1CCc2c(O)cccc2C1 (stereo not drawn)

>  <readout_name>
Ratio Ki

>  <quantitative_readout>
33.4

$$$$
>  <compound>
CCCN(CCN1CCN(C(=O)c2c[nH]c3ccccc23)CC1)[C@@H]1CCc2nc(N)sc2C1

>  <readout_name>
Ratio Ki

>  <quantitative_readout>
27.3

$$$$

* * *

biological target: D(2) dopamine receptor (Homo sapiens); assay: Agonist activity at human cloned dopamine D2 receptor expressed in CHO cells by [35S]GTPgammaS binding assay
Sequence (P14416 whole entry): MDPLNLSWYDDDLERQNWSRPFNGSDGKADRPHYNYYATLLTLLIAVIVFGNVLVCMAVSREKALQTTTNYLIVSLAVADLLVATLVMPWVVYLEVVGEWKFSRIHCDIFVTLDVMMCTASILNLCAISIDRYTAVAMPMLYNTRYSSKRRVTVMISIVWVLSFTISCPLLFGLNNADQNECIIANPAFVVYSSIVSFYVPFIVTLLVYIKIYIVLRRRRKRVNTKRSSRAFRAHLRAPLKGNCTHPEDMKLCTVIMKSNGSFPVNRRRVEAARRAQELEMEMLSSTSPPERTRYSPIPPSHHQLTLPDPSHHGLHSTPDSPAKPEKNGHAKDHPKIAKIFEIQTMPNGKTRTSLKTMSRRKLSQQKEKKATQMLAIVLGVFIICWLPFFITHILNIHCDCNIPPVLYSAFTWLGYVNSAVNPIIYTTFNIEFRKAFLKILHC
Here, each record is paired with measured EC50 data.

>  <mol>
CCCN(CCN1CCN(C(=O)c2c[nH]c3ccccc23)CC1)[C@H]1CCc2nc(N)sc2C1

>  <EC50>
86.4 nM

$$$$
>  <mol>
CCCN(CCN1CCN(C(=O)c2ccc3[nH]ccc3c2)CC1)[C@H]1CCc2nc(N)sc2C1

>  <EC50>
70.7 nM

$$$$
>  <mol>
CCCN(CCN1CCN(c2ccc(-c3ccccc3)cc2)CC1)[C@H]1CCc2nc(N)sc2C1

>  <EC50>
33.1 nM

$$$$
>  <mol>
CCCN(CCN1CCN(c2ccc3[nH]ccc3c2)CC1)[C@H]1CCc2nc(N)sc2C1

>  <EC50>
2.96 nM

$$$$

* * *

molecular target: D(2) dopamine receptor (Homo sapiens); experiment: Agonist activity at human cloned dopamine D2 receptor expressed in CHO cells by [35S]GTPgammaS binding assay relative to dopamine; type: functional, cell-based

>  <mol>
CCCN(CCN1CCN(C(=O)c2ccc3[nH]ccc3c2)CC1)[C@H]1CCc2nc(N)sc2C1

>  <target_or_test_system>
D(2) dopamine receptor (Homo sapiens)

>  <Emax / %>
107

$$$$
>  <mol>
CCCN(CCN1CCN(C(=O)c2c[nH]c3ccccc23)CC1)[C@H]1CCc2nc(N)sc2C1

>  <target_or_test_system>
D(2) dopamine receptor (Homo sapiens)

>  <Emax / %>
91.6

$$$$
>  <mol>
CCCN(CCN1CCN(c2ccc(-c3ccccc3)cc2)CC1)[C@H]1CCc2nc(N)sc2C1

>  <target_or_test_system>
D(2) dopamine receptor (Homo sapiens)

>  <Emax / %>
104

$$$$
>  <mol>
CCCN(CCN1CCN(c2ccc3[nH]ccc3c2)CC1)[C@H]1CCc2nc(N)sc2C1

>  <target_or_test_system>
D(2) dopamine receptor (Homo sapiens)

>  <Emax / %>
107

$$$$
>  <mol>
CCCN(CCN1CCN(C(=O)c2cc3ccccc3[nH]2)CC1)[C@H]1CCc2nc(N)sc2C1

>  <target_or_test_system>
D(2) dopamine receptor (Homo sapiens)

>  <Emax / %>
101

$$$$

* * *

Here, each record is paired with measured pKi data.
molecular target: D(3) dopamine receptor (Rattus norvegicus, UniProt P19020); assay: Displacement of [3H]spiroperidol from rat cloned dopamine D3 receptor expressed in HEK293 cells; assay type: cell-based
Sequence (P19020 whole entry): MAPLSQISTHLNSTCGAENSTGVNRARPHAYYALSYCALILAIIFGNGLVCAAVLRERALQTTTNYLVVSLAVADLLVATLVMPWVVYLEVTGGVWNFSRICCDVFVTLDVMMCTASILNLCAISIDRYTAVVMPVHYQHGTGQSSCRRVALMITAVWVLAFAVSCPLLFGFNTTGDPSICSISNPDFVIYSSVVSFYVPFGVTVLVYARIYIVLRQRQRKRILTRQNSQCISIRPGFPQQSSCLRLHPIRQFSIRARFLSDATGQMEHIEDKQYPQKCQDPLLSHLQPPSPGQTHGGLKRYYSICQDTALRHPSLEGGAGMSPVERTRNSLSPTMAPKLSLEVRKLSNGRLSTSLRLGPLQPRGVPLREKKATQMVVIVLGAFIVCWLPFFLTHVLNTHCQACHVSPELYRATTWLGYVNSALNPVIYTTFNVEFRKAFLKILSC
pKi: −log10 of the molar value.
readout_name: pKi

>  <molecule>
CCCN(CCN1CCN(C(=O)c2ccc3[nH]ccc3c2)CC1)[C@H]1CCc2nc(N)sc2C1

>  <target_or_test_system>
D(3) dopamine receptor (Rattus norvegicus, UniProt P19020)

>  <readout_name>
pKi

>  <quantitative_readout>
8.85

$$$$
>  <molecule>
CCCN(CCN1CCN(C(=O)c2cc3ccccc3[nH]2)CC1)C1CCc2nc(N)sc2C1 (racemic)

>  <target_or_test_system>
D(3) dopamine receptor (Rattus norvegicus, UniProt P19020)

>  <readout_name>
pKi

>  <quantitative_readout>
8.34

$$$$
>  <molecule>
CCCN(CCN1CCN(C(=O)c2c[nH]c3ccccc23)CC1)[C@@H]1CCc2nc(N)sc2C1

>  <target_or_test_system>
D(3) dopamine receptor (Rattus norvegicus, UniProt P19020)

>  <readout_name>
pKi

>  <quantitative_readout>
7.32

$$$$
>  <molecule>
CCCN(CCN1CCN(Cc2c[nH]c3ccccc23)CC1)C1CCc2c(O)cccc2C1 (centres undefined)

>  <target_or_test_system>
D(3) dopamine receptor (Rattus norvegicus, UniProt P19020)

>  <readout_name>
pKi

>  <quantitative_readout>
8.49

$$$$
>  <molecule>
CCCN(CCN1CCN(c2ccc3[nH]ccc3c2)CC1)[C@H]1CCc2nc(N)sc2C1

>  <target_or_test_system>
D(3) dopamine receptor (Rattus norvegicus, UniProt P19020)

>  <readout_name>
pKi

>  <quantitative_readout>
8.66

$$$$
>  <molecule>
CCCN(CCN1CCN(C(=O)c2ccc3[nH]ccc3c2)CC1)[C@@H]1CCc2nc(N)sc2C1

>  <target_or_test_system>
D(3) dopamine receptor (Rattus norvegicus, UniProt P19020)

>  <readout_name>
pKi

>  <quantitative_readout>
7.28

$$$$
>  <molecule>
CCCN(CCCN1CCN(C(=O)c2cc3ccccc3[nH]2)CC1)C1CCc2nc(N)sc2C1 (racemic)

>  <target_or_test_system>
D(3) dopamine receptor (Rattus norvegicus, UniProt P19020)

>  <readout_name>
pKi

>  <quantitative_readout>
8.56

$$$$
>  <molecule>
CCCN(CCN1CCN(c2ccc3[nH]ccc3c2)CC1)C1CCc2nc(N)sc2C1 (racemic)

>  <target_or_test_system>
D(3) dopamine receptor (Rattus norvegicus, UniProt P19020)

>  <readout_name>
pKi

>  <quantitative_readout>
8.72

$$$$
>  <molecule>
CCCN(CCN1CCN(c2ccc3[nH]ccc3c2)CC1)[C@@H]1CCc2nc(N)sc2C1

>  <target_or_test_system>
D(3) dopamine receptor (Rattus norvegicus, UniProt P19020)

>  <readout_name>
pKi

>  <quantitative_readout>
7.80

$$$$
